Measured pIC50 on Prolyl endopeptidase (Homo sapiens, UniProt P48147) follows.
Sequence (P48147 whole entry): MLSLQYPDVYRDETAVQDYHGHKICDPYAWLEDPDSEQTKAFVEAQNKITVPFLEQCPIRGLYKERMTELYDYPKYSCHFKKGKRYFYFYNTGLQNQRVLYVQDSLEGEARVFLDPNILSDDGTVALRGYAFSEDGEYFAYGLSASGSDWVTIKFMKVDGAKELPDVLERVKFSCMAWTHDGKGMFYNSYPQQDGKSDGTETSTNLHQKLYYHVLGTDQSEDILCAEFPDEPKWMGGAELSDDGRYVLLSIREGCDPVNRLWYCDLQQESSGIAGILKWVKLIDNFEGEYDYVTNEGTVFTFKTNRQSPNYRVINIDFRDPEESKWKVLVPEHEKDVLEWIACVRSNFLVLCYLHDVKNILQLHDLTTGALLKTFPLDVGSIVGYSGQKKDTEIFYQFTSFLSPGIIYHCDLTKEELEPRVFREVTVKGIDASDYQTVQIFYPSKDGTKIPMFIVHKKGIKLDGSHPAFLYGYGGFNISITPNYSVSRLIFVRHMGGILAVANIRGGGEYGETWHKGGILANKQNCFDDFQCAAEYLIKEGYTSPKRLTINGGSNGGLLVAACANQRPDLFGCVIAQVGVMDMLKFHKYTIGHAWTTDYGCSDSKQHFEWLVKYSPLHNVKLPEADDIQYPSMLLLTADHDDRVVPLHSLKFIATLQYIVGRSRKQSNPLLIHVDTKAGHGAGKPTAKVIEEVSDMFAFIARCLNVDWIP
Answers are plain numbers, as −log10 of the molar value.

[in] Recall and state the measured pIC50 for N#C[C@@H]1CC(F)(F)CN1C(=O)CNC(=O)c1csc(-c2ccc3occc3c2)n1 .
[out] 5.00

[in] Recall and state the measured pIC50 for N#C[C@@H]1CC(F)(F)CN1C(=O)CNC(=O)c1csc(-c2ccc(C(F)(F)F)cc2)n1 .
[out] 5.86

[in] Recall and state the measured pIC50 for C[S+]([O-])c1ccc(Cc2nc(C(=O)NCC(=O)N3CC(F)(F)C[C@H]3C#N)cs2)cc1 (stereo not given in full) .
[out] 5.92

Give measured pIC50 for every item shown.
1. N#C[C@@H]1CC(F)(F)CN1C(=O)CNC(=O)c1csc(-c2ccc(-c3ccccc3)cc2)n1
2. N#C[C@@H]1CC(F)(F)CN1C(=O)CNC(=O)c1coc(-c2ccc(Cl)cc2)n1

[out]
1: 5.00; 2: 5.40

----------
TEST SYSTEM: Prolyl endopeptidase FAP (Homo sapiens)
ASSAY METHOD TEXT: Inhibition of FAP (unknown origin) at 1 uM TR-FRET assay relative to control
ASSAY METRIC: inhibition (%)
One number for each entry, in %.

Below, 6 compounds whose answers are already recorded.
[in] Recall and state the measured inhibition for Cc1ccc(Cc2nc(C(=O)NCC(=O)N3CC(F)(F)C[C@H]3C#N)cs2)cc1 .
[out] 97.8

[in] Recall and state the measured inhibition for N#C[C@@H]1CC(F)(F)CN1C(=O)CNC(=O)c1csc(Cc2ccc(Cl)cc2Cl)n1 .
[out] 97.2

[in] Recall and state the measured inhibition for N#C[C@@H]1CC(F)(F)CN1C(=O)CNC(=O)c1csc(Cc2ccccc2-c2ccc3ccccc3c2)n1 .
[out] 99.3

[in] Recall and state the measured inhibition for CS(=O)(=O)c1ccc(Cc2nc(C(=O)NCC(=O)N3CC(F)(F)C[C@H]3C#N)cs2)cc1 .
[out] 98

[in] Recall and state the measured inhibition for N#C[C@@H]1CC(F)(F)CN1C(=O)CNC(=O)c1coc(-c2ccc(Cl)cc2)n1 .
[out] 88.7

[in] Recall and state the measured inhibition for N#Cc1ccc(-c2ccc(Cc3nc(C(=O)NCC(=O)N4CC(F)(F)C[C@H]4C#N)cs3)cc2)cc1 .
[out] 98.7

Give measured inhibition for every item shown.
1. N#C[C@@H]1CC(F)(F)CN1C(=O)CNC(=O)c1csc(-c2ccc(F)cc2)n1
2. N#C[C@@H]1CC(F)(F)CN1C(=O)CNC(=O)c1cccc(-c2ccc(Cl)cc2)n1

[out]
1: 90.5; 2: 80.6

Give measured inhibition for every item shown.
1. N#C[C@@H]1CC(F)(F)CN1C(=O)CNC(=O)c1csc(Cc2ccc(OC(F)(F)F)cc2)n1
2. N#C[C@@H]1CC(F)(F)CN1C(=O)CNC(=O)c1csc(Cc2ccccc2I)n1
3. Cn1cc(C(=O)NCC(=O)N2CC(F)(F)C[C@H]2C#N)cc1-c1ccc(Cl)cc1
4. N#Cc1ccc(Cc2nc(C(=O)NCC(=O)N3CC(F)(F)C[C@H]3C#N)cs2)cc1

[out]
1: 86.3; 2: 90.6; 3: 85.3; 4: 99.3

Give measured inhibition for every item shown.
1. N#C[C@@H]1CC(F)(F)CN1C(=O)CNC(=O)c1csc(-c2ccc(C(F)(F)F)cc2)n1
2. N#C[C@@H]1CC(F)(F)CN1C(=O)CNC(=O)c1csc(Cc2ccc(-n3cncn3)cc2)n1
3. N#C[C@@H]1CC(F)(F)CN1C(=O)CNC(=O)c1cnc(-c2ccc(Cl)cc2)cn1
4. N#C[C@@H]1CC(F)(F)CN1C(=O)CNC(=O)c1c[nH]c(-c2ccc(Cl)cc2)c1
5. N#C[C@@H]1CC(F)(F)CN1C(=O)CNC(=O)c1csc(Cc2ccccc2Br)n1
6. N#C[C@@H]1CC(F)(F)CN1C(=O)CNC(=O)c1csc(-c2ccc(Cl)cc2C(F)(F)F)n1

[out]
99
98.3
64
57.8
93.7
94.6

Give measured inhibition for every item shown.
1. N#C[C@@H]1CC(F)(F)CN1C(=O)CNC(=O)c1csc(Cc2cc(Cl)ccc2Cl)n1
2. N#C[C@@H]1CC(F)(F)CN1C(=O)CNC(=O)c1csc(Cc2ccc(F)c(F)c2)n1

[out]
[94.5, 95.4]
